target: P-selectin (PS-Rg) (Homo sapiens, UniProt P16109 P16109:42-321); test: filter; Table 21 gives 63 pM; conditions: tags: human IgG Fc fusion; chain copies: 2 (stated dimer)
Sequence (P16109 42-321, one chain of several): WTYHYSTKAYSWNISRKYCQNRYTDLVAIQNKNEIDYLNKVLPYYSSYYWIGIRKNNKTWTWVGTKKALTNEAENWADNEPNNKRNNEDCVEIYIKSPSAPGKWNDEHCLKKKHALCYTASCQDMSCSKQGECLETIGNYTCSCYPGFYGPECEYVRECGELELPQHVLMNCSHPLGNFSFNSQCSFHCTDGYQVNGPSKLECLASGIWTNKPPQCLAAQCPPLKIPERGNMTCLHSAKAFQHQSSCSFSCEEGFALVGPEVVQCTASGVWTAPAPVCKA

{"columns": ["binder", "Kd [nM]"],
 "data": [
  ["CUCAACGAACCACGGGGAAAUCCACCAGUAACACGCGAG (ssRNA, 2'-F C and U) [PF398s1]", 0.178]
]}
